System: BT-474
Test: Cytotoxicity against human BT474 cells after 4 days by MTS/cell proliferation assay
Assay type: functional, cell-based
Details: BT-474, 96 h
Provide the recorded log10 of IC50 for the entries that follow.
Scale type: logarithmic (base 10). Underlying IC50 unit: nM.

-- ask Enter reported log10 of IC50 observed with BT-474 for `CC(=O)O[C@@H](C)/C=C\C(=O)N[C@@H]1C[C@H](C)[C@H](C/C=C(C)/C=C/[C@@H]2C[C@](O)(CCl)C[C@@H](CC(=O)O)O2)O[C@@H]1C`
-- reply 0.27

-- ask Lab note: need log10 of IC50 with BT-474 for entry `CC(=O)O[C@@H](C)/C=C\C(=O)N[C@@H]1C[C@H](C)[C@H](C/C=C(C)/C=C/[C@@H]2CC(C)=CC(=O)O2)O[C@@H]1C` , please look it up.
-- reply 0.57

-- ask Quick check: log10 of IC50 on BT-474, item `CC(=O)O[C@@H](C)/C=C\C(=O)N[C@@H]1C[C@H](C)[C@H](C/C=C(C)/C=C/[C@H]2O[C@H](CC(=O)O)C[C@@]3(CO3)[C@@H]2O)O[C@@H]1C` ?
-- reply 2.16

-- ask Enter reported log10 of IC50 observed with BT-474 for `CCCNC(=O)C[C@@H]1C[C@@]2(CO2)[C@H](O)[C@@H](/C=C/C(C)=C/C[C@@H]2O[C@H](C)[C@H](NC(=O)/C=C\[C@H](C)OC(C)=O)C[C@@H]2C)O1`
-- reply -0.72

-- ask Provide value of log10 of IC50 for this record tested with BT-474: `CC(=O)O[C@H]1C(=O)[C@@]2(C)[C@H]([C@H](OC(=O)c3ccccc3)[C@]3(O)C[C@H](OC(=O)[C@H](O)[C@@H](NC(=O)c4ccccc4)c4ccccc4)C(C)=C1C3(C)C)[C@]1(OC(C)=O)CO[C@@H]1C[C@@H]2O`
-- reply 0.92

-- ask Under BT-474: log10 of IC50 value of `CC(=O)O[C@@H](C)/C=C\C(=O)N[C@@H]1C[C@H](C)[C@H](C/C=C(C)/C=C/[C@@H]2C[C@](O)(CCl)C[C@@H](CC(=O)OC[C@@]3(O)[C@H](O)[C@@H](/C=C/C(C)=C/C[C@@H]4O[C@H](C)[C@H](NC(=O)/C=C\[C@H](C)OC(C)=O)C[C@@H]4C)O[C@](C)(O)[C@@H]3O)O2)O[C@@H]1C` ?
-- reply 0.58

-- ask # query: log10 of IC50 | item `CC(=O)O[C@@H](C)/C=C\C(=O)N[C@@H]1C[C@H](C)[C@H](C/C=C(C)/C=C/[C@@H]2C[C@]3(CO3)C[C@@H](CC(=O)O)O2)O[C@@H]1C` | system: BT-474
-- reply 0.68

-- ask API: value(readout= log10 of IC50, system= BT-474, query= `COC(=O)C[C@@H]1C[C@@]2(CO2)[C@H](O)[C@@H](/C=C/C(C)=C/C[C@@H]2O[C@H](C)[C@H](NC(=O)/C=C\[C@H](C)OC(C)=O)C[C@@H]2C)O1` )
-- reply -0.06

-- ask Hello, I am looking for reported log10 of IC50 with BT-474 for `CCCNC(=O)C[C@@H]1C[C@@]2(CO2)C[C@@H](/C=C/C(C)=C/C[C@@H]2O[C@H](C)[C@H](NC(=O)/C=C\[C@H](C)OC(C)=O)C[C@@H]2C)O1` . Could you help?
-- reply 0.40
